Where do these numbers come from? They come from the CheMixHub drug solubility set.

assay: xn = mol fraction of the nth substance listed, in the solute-free solvent; conditions: 288.15 K; x2 = 0.03225
Listing: solubility (g/100 g solution) of selected compounds
The response must contain the number and no unit.

* O=c1cc(CBr)c2ccccc2[nH]1 + CCCO + O | 0.0292
* O=C1C=CC(=O)N1c1ccccc1Br + CC(C)O + O | 0.779
* O=c1cc(CBr)c2ccccc2[nH]1 + CC(C)O + O | 0.0207
* CC(C)C(=O)Nc1ccc([N+](=O)[O-])c(C(F)(F)F)c1 + CC(C)O + O | 0.00694

# next compound below
Need solubility (g/100 g solution), item Nc1ncc(Br)nc1Br + CC(C)O + O
0.0212
